B1: TPR t1 (parent)
chain: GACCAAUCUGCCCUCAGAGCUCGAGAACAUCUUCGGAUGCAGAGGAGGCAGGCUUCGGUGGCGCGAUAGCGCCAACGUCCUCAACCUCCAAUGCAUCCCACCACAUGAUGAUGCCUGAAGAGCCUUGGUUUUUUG

- Variants of: B1
- ASSAY INFO: polymerase ribozyme fitness, log enrichment relative to wild type (log ratio); higher = more active; in vitro selection for triplet polymerase activity
polymerase ribozyme fitness (log ratio) class ranges: low: < -3; middle: ≥ -3 and < -2; high: ≥ -2

Ask: Form: Item = G39U G45U C73G ; Class = ?
Reply: middle
